Exercise: state measured 4M Gnd, 50 mM NaAc pH 4 Strip Conc for each of the binders provided.
Target or system: T1, BMP-12 (UniProt Q7Z4P5 322-450, limits assumed)
T1 construct: also called BMP12/GDF7
T1 sequence (looked up): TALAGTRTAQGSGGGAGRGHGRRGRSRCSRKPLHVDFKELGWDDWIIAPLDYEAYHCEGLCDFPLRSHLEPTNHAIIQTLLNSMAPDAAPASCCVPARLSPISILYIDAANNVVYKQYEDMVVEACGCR
Assay info: peptide resin, filter plate; load 5: 25 mM HEPES pH 7.0
No end group written: not given here.
One number for each entry, in mg/ml.

[
  {
    "Binder": "Ac-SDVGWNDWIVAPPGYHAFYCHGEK [BMP2 N-trun peptide 750]",
    "Result unit": "mg/ml",
    "Test value": 0.046
  },
  {
    "Binder": "Ac-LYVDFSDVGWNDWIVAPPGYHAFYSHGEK [BMP2 Full peptide 747]",
    "Result unit": "mg/ml",
    "Test value": 0.074
  },
  {
    "Binder": "Ac-LYVSDVGWNDWIVK (not fully specified (residue 3); printed as Ac-LYV**SDVGWNDWIVK; also: ** after V3 not explained) [BMP2 C-trunc_2 peptide 746]",
    "Result unit": "mg/ml",
    "Test value": 0.068
  },
  {
    "Binder": "Ac-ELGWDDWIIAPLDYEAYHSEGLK [BMP12 N-trun_1S peptide 749]",
    "Result unit": "mg/ml",
    "Test value": 0.093
  },
  {
    "Binder": "Ac-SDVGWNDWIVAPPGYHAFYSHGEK [BMP2 N-trun 1S peptide 751]",
    "Result unit": "mg/ml",
    "Test value": 0.044
  },
  {
    "Binder": "Ac-VAPPGYHAFYSHGEK [BMP2 N-trunc_2 peptide 745]",
    "Result unit": "mg/ml",
    "Test value": 0.021
  }
]

From here, focus on the item given below.
State the recorded 4M Gnd, 50 mM NaAc pH 4 Strip Conc for this entry: Ac-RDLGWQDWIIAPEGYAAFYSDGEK [BMP5 peptide 748] 0.105
